These data points were gathered from patent US8574831B2.

tested on: HIV with mutations in the HIV protease sequence; assay: Phenotypic fold resistance to protease inhibitors, protease mutations 84A/84L/84C/54M/54L/54V in a background (Examples 8-13); type: cell-based, HIV-1; conditions: Table 13, V052973, genotype 10I + 54L + 77I
readoutName: Fold change in IC50 (fold)
API: value field is a number in fold; no unit string.

# lookup: Fold change in IC50 of Cc1c(O)cccc1C(=O)N[C@@H](CSc1ccccc1)[C@H](O)CN1C[C@H]2CCCC[C@H]2C[C@H]1C(=O)NC(C)(C)C [Nelfinavir, nelfinavir]
2.8

# lookup: Fold change in IC50 of CC(C)(C)NC(=O)[C@@H]1CN(Cc2cccnc2)CCN1C[C@@H](O)C[C@@H](Cc1ccccc1)C(=O)N[C@H]1c2ccccc2C[C@H]1O [Indinavir, indinavir]
0.8

# lookup: Fold change in IC50 of CC(C)c1nc(CN(C)C(=O)N[C@H](C(=O)N[C@@H](Cc2ccccc2)C[C@H](O)[C@H](Cc2ccccc2)NC(=O)OCc2cncs2)C(C)C)cs1 [Ritonavir, ritonavir]
1.4

# lookup: Fold change in IC50 of CC(C)(C)NC(=O)[C@@H]1C[C@@H]2CCCC[C@@H]2CN1C[C@@H](O)[C@H](Cc1ccccc1)NC(=O)[C@H](CC(N)=O)NC(=O)c1ccc2ccccc2n1 [Saquinavir, saquinavir]
0.8

# lookup: Fold change in IC50 of CC(C)CN(C[C@@H](O)[C@H](Cc1ccccc1)NC(=O)O[C@H]1CCOC1)S(=O)(=O)c1ccc(N)cc1 [Amprenavir, amprenavir]
2.1

###

Kindly state Fold change in IC50 for each of the entries shown.
test system: HIV with mutations in the HIV protease sequence; experiment: Phenotypic fold resistance to protease inhibitors, protease mutations 84A/84L/84C/54M/54L/54V in a background (Examples 8-13); format: cell-based, HIV-1; conditions: Table 12, V052940, genotype 71V
API: value field is a number in fold; no unit string.

# lookup: Fold change in IC50 of CC(C)(C)NC(=O)[C@@H]1C[C@@H]2CCCC[C@@H]2CN1C[C@@H](O)[C@H](Cc1ccccc1)NC(=O)[C@H](CC(N)=O)NC(=O)c1ccc2ccccc2n1 [Saquinavir, saquinavir]
0.8

# lookup: Fold change in IC50 of CC(C)c1nc(CN(C)C(=O)N[C@H](C(=O)N[C@@H](Cc2ccccc2)C[C@H](O)[C@H](Cc2ccccc2)NC(=O)OCc2cncs2)C(C)C)cs1 [Ritonavir, ritonavir]
0.4

# lookup: Fold change in IC50 of CC(C)(C)NC(=O)[C@@H]1CN(Cc2cccnc2)CCN1C[C@@H](O)C[C@@H](Cc1ccccc1)C(=O)N[C@H]1c2ccccc2C[C@H]1O [Indinavir, indinavir]
0.7

# lookup: Fold change in IC50 of CC(C)CN(C[C@@H](O)[C@H](Cc1ccccc1)NC(=O)O[C@H]1CCOC1)S(=O)(=O)c1ccc(N)cc1 [Amprenavir, amprenavir]
0.3

# lookup: Fold change in IC50 of Cc1c(O)cccc1C(=O)N[C@@H](CSc1ccccc1)[C@H](O)CN1C[C@H]2CCCC[C@H]2C[C@H]1C(=O)NC(C)(C)C [Nelfinavir, nelfinavir]
0.6

###

Kindly state Fold change in IC50 for each of the entries shown.
tested on: HIV with mutations in the HIV protease sequence; experiment: Phenotypic fold resistance to protease inhibitors, protease mutations 84A/84L/84C/54M/54L/54V in a background (Examples 8-13); type: cell-based, HIV-1; conditions: Virco ID V052967; genotype 10I + 54V + 71V + 77I + 90M; vs mean IC50 of wild type laboratory HIV strain
API: value field is a number in fold; no unit string.

# lookup: Fold change in IC50 of Cc1c(O)cccc1C(=O)N[C@@H](CSc1ccccc1)[C@H](O)CN1C[C@H]2CCCC[C@H]2C[C@H]1C(=O)NC(C)(C)C
0.8

# lookup: Fold change in IC50 of CC(C)(C)NC(=O)[C@@H]1CN(Cc2cccnc2)CCN1C[C@@H](O)C[C@@H](Cc1ccccc1)C(=O)N[C@H]1c2ccccc2C[C@H]1O
0.4

# lookup: Fold change in IC50 of CC(C)(C)NC(=O)[C@@H]1C[C@@H]2CCCC[C@@H]2CN1C[C@@H](O)[C@H](Cc1ccccc1)NC(=O)[C@H](CC(N)=O)NC(=O)c1ccc2ccccc2n1
0.6

# lookup: Fold change in IC50 of CC(C)CN(C[C@@H](O)[C@H](Cc1ccccc1)NC(=O)O[C@H]1CCOC1)S(=O)(=O)c1ccc(N)cc1
0.4

# lookup: Fold change in IC50 of CC(C)c1nc(CN(C)C(=O)N[C@H](C(=O)N[C@@H](Cc2ccccc2)C[C@H](O)[C@H](Cc2ccccc2)NC(=O)OCc2cncs2)C(C)C)cs1
0.7
